Target: T1, human PD-1-His (human, UniProt Q15116 25-170)
T1 construct: extracellular domain; not shown: His tag
T1 sequence (Q15116 25-170): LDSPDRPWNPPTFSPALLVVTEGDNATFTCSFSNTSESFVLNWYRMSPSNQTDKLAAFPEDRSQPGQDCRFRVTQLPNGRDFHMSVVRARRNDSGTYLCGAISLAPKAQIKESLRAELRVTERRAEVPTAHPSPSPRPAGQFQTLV
Experiment: ELISA, coated human PD-1-his
Assignment: determine reported EC50 for the given binders.
Note: unit nM is implicit; provide only the numeric part.

Lookup: Look at this binder and give its reported EC50. humanized antibody 29C6-HZ1 (antibody, human IgG4 S228P, kappa, V domains shown) VH: QVQLVQSGAEVKKPGASVKVSCKTSGYTFTEYTIYWVRQAPGQGLEWIGGINPKNGATLYNQKFQGRVTLTVDKSTSTAYMELRSLRSDDTAVYYCVRDYHGNSHDSMDYWGQGTLVTVSS VL: EIVLTQSPATLSLSPGERATLSCSASSSVSYMHWFQQKPGQAPRLWIYYTSNLASGVPARFSGSGSGTDYTLTISSLEPEDFAVYYCQQRSDYPPTFGGGTKVEIKR
Found: 0.42

Lookup: Look at this binder and give its reported EC50. chimeric antibody 91D5-CH (antibody, human IgG4 S228P, kappa, V domains shown, Murine 91D5 variable regions fused to the IgG4 (S228P) heavy chain constant region and the human kappa constant region) VH: EVQLQQSGPELVKPGASVKISCRASGYTFTDYYMNWVKESHGKSLEWIGEINPKYGDTTYNQKFKDKATLTVDKSSSTASVELRSLTSEDSAVYYCAKGIRLFDSWGQGTTVTVSS VL: DIQLTQSPASLSASVGETVTITCRPSGNVHNYFAWYQQKQGKSPQLLVYNAKTLAEGVPSRFSGSGSGTQYSLKINSLQPEDFGTYYCHHYYTAPFTFGSGTKLEIKR
Found: 0.29

Lookup: Look at this binder and give its reported EC50. humanized antibody 29C6-HZ2 (antibody, human IgG4 S228P, kappa, V domains shown) VH: QVQLVQSGVEVKKPGASVKVSCKTSGYTFTEYTIYWVRQAPGQGLEWIGGINPKNGATLYNQKFKVRATLTVDKSTTTAYMELKSLQFDDTAVYYCVRDYHGNSHDSMDYWGQGTTVTVSS VL: EIVLTQSPATLSLSPGERATLSCSASSSVSYMHWFQQKPGQAPRLLIYYTSNLASGVPARFSGSGSGTDYTLTISSLEPEDFAVYYCQQRSDYPPTFGGGTKVEIKR
Found: 0.16

Lookup: Look at this binder and give its reported EC50. humanized antibody 91D5-HZ1 (antibody, human IgG4 S228P, kappa, V domains shown) VH: EVQLVQSGAEVKKPGASVKVSCKASGYTFTDYYMNWVREAPGQGLEWMGEINPKYGDTTYAQKLQGRVTLTVDKSTSTAYMELSSLRSDDTAVYYCAKGIRLFDSWGQGTLVTVSS VL: DIQLTQSPSSLSASVGDRVTITCRPSGNVHNYFAWYQQKPGKSPKLLVYNAKTLAEGVPSRFSGSGSGTDYTLTISSLQPEDFATYYCHHYYTAPFTFGGGTKVEIKR
Found: 0.39

Lookup: Look at this binder and give its reported EC50. chimeric antibody 29C6-CH (antibody, human IgG4 S228P, kappa, V domains shown, Murine 29C6 variable regions fused to the IgG4 (S228P) heavy chain constant region and the human kappa constant region) VH: QVQLEESGPELVKPGASVKISCKTSGYTFTEYTIYWVKQSHGKSLEWIGGINPKNGATLYNQKFKVKATLTVDKSSSTAYMELRSLTSEDSAVYYCVRDYHGNSHDSMDYWGQGTSVTVSS VL: QIVLTQSPAIMSASPGEKVTITCSASSSVSYMHWFRQKPGTSPKLWIYYTSNLASGVPAHFSGSGSGTSYSLTISRMEAEDAATYYCQQRSDYPPTFGGGTKLEIKR
Found: 0.17
